Tested on: L1210 leukemia ip in BDF1 mice, survival T/C
PROCEDURE_SUMMARY: NCI In Vivo Anticancer Drug Screen. Data for tumor model L1210 Leukemia (intraperitoneal) in B6D2F1 (BDF1) mice
MEASUREMENT_CONTEXT: endpoint: mean survival time; dose: 400.0 mg/kg/injection; schedule: Q01DX001 (ip); vehicle: carboxymethylcellulose (CMC); higher = longer survival
Experimental: The antitumor activity of compounds was measured in mice bearing transplantable tumors. Survival or tumor size were measured and the results are expressed as the measurement made in the treated group (T) divided by the measurement made in the vehicle treated control group (C). The tumor model used in this assay is L1210 Leukemia (intraperitoneal) in B6D2F1 (BDF1) mice
Toxic doses and inconclusive results are not listed.
Consider the following compounds; for each one, report its T/C.

// each compound listed below needs its T/C
1. O=C(Nc1ccc2oc(=O)c3ccccc3c2c1)C(Cl)Cl
2. N#CCCNC(CO)C(=O)O (stereo unspecified)
3. C=CCNC(=S)Nc1cccc([N+](=O)[O-])c1
4. CCOP(=O)(Nc1ccc2c(c1)C(=O)c1ccccc1-2)OCC
5. O=[N+]([O-])c1ccc(N=Nc2ccc3c(c2)-c2ccccc2/C3=C\c2cccc([N+](=O)[O-])c2)cc1
6. O=C(Nc1ccc(C(F)(F)F)cc1)Nc1cccc(Cl)c1
7. COc1cc(N(CCCl)CCCl)c(OC)cc1C=Nc1cccc(C(F)(F)F)c1
8. c1ccc2c(c1)OCOc1ccccc1OCO2

## Result
103 % of control
89 % of control
100 % of control
103 % of control
98 % of control
95 % of control
98 % of control
92 % of control

Could I get T/C for every one of these entries?
1. CC(C)CCO[Si](C)(C)CCl
2. O=[N+]([O-])c1ccc(N/N=C\C2CC=C3c4ccccc4CCC3C2/C=N\Nc2ccc([N+](=O)[O-])cc2[N+](=O)[O-])c([N+](=O)[O-])c1 (stereo unspecified)

## Result
["103 % of control", "108 % of control"]

## Task Which value of T/C has been reported for "Cc1ccc(NC(=O)NCCCCl)cc1" in the records?
## Result 106 % of control
